# ASSAY NOTES: CelltiterGlo viability cell assay
# Assay type: cell-based
# RECORDED CONDITIONS: human, SKMM2 cells (multiple myeloma line), SKMM2, 6 day, 0.1 uM; read-out: viability Replicate 3
MEASURED PROPERTY: viability at 6 day, 0.1 µM (%)
// note: answer is a bare numeric in %

Qu. Which viability at 6 day, 0.1 µM value is on record for COc1cc(OC)cc(-c2noc(N3CCN(C)C4(CCN(c5ccnc(C)c5)CC4)C3)n2)c1 ?
Ans. 96.8

* * *

# ASSAY NOTES: CelltiterGlo viability cell assay
# Type: cell-based
# RECORDED CONDITIONS: human, HCC1143 breast cancer cells, HCC1143, 6 day, 9.5 uM; read-out: viability Replicate 1
MEASURED PROPERTY: viability at 6 day, 9.5 µM (%)
// note: answer is a bare numeric in %

Qu. Which viability at 6 day, 9.5 µM value is on record for COc1cc(OC)cc(-c2noc(N3CCN(C)C4(CCN(c5ccnc(C)c5)CC4)C3)n2)c1 [MRK-740] ?
Ans. 79.5

* * *

# ASSAY NOTES: CelltiterGlo viability cell assay
# Assay type: cell-based
# RECORDED CONDITIONS: human, MDA-MB-436 breast cancer cells, MDA MB436, 3 day, 30 uM; read-out: viability Replicate 3
MEASURED PROPERTY: viability at 3 day, 30 µM
Write the figure, then the unit, nothing else.

Qu. Which viability at 3 day, 30 µM value is on record for COc1cc(OC)cc(-c2noc(N3CCN(C)C4(CCN(c5ccnc(C)c5)CC4)C3)n2)c1 ?
Ans. 43.6%

* * *

# ASSAY NOTES: CelltiterGlo viability cell assay
# Assay type: cell-based
# RECORDED CONDITIONS: human, RPMI-8226 multiple myeloma cells, 8226, 3 day, 3 uM; read-out: viability Average
MEASURED PROPERTY: viability at 3 day, 3 µM (%)
// note: answer is a bare numeric in %

Qu. Which viability at 3 day, 3 µM value is on record for COc1cc(OC)cc(-c2noc(N3CCN(C)C4(CCN(c5ccnc(C)c5)CC4)C3)n2)c1 [MRK-740] ?
Ans. 106

* * *

# ASSAY NOTES: CelltiterGlo viability cell assay
# Type: cell-based
# RECORDED CONDITIONS: human, MDA-MB-436 breast cancer cells, MDA MB436, 3 day, 9.5 uM; read-out: viability Replicate 2
MEASURED PROPERTY: viability at 3 day, 9.5 µM (%)
// note: answer is a bare numeric in %

Qu. Which viability at 3 day, 9.5 µM value is on record for COc1cc(OC)cc(-c2noc(N3CCN(C)C4(CCN(c5ccnc(C)c5)CC4)C3)n2)c1 [MRK-740] ?
Ans. 89.3

* * *

# ASSAY NOTES: CelltiterGlo viability cell assay
# Type: cell-based
# RECORDED CONDITIONS: human, HCC1806 cells, HCC1806, 3 day, 0.3 uM; read-out: viability Average
MEASURED PROPERTY: viability at 3 day, 0.3 µM (%)
// note: answer is a bare numeric in %

Qu. Which viability at 3 day, 0.3 µM value is on record for COc1cc(OC)cc(-c2noc(N3CCN(C)C4(CCN(c5ccnc(C)c5)CC4)C3)n2)c1 ?
Ans. 106
